Taken from patent US9421209B2.

inhibition at 1 µM listing for selected molecules.
MEASURED_ON: P110 δ/Pi3K δ (Homo sapiens)
Sequence (O00329 whole entry, canonical isoform): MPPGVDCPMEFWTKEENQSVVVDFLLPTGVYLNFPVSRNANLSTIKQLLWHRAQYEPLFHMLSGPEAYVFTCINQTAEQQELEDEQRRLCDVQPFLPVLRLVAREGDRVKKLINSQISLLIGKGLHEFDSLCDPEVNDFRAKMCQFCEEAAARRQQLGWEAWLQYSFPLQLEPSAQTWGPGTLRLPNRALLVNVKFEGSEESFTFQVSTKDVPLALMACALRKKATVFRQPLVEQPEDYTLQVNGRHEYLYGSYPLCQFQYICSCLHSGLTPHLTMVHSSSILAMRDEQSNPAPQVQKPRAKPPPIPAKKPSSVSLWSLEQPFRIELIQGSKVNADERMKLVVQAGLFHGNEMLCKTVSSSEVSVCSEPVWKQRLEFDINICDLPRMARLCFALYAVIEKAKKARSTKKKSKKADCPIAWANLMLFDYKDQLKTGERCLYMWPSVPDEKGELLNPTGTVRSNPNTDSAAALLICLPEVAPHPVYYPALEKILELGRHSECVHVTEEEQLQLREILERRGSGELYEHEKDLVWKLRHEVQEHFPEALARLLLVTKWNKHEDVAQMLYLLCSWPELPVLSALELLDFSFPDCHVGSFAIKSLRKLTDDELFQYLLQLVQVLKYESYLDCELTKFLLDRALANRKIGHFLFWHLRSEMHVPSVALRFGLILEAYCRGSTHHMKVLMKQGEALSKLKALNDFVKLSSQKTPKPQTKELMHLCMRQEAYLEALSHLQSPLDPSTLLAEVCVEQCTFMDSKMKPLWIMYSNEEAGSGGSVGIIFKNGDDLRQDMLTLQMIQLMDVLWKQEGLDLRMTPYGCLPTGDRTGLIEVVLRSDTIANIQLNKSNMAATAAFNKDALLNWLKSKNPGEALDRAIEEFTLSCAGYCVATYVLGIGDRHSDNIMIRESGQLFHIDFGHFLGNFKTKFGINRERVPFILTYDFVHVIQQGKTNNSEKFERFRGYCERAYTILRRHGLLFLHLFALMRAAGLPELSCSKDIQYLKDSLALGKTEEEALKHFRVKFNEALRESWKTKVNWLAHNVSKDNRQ
Sequence (P27986 whole entry partner, canonical isoform): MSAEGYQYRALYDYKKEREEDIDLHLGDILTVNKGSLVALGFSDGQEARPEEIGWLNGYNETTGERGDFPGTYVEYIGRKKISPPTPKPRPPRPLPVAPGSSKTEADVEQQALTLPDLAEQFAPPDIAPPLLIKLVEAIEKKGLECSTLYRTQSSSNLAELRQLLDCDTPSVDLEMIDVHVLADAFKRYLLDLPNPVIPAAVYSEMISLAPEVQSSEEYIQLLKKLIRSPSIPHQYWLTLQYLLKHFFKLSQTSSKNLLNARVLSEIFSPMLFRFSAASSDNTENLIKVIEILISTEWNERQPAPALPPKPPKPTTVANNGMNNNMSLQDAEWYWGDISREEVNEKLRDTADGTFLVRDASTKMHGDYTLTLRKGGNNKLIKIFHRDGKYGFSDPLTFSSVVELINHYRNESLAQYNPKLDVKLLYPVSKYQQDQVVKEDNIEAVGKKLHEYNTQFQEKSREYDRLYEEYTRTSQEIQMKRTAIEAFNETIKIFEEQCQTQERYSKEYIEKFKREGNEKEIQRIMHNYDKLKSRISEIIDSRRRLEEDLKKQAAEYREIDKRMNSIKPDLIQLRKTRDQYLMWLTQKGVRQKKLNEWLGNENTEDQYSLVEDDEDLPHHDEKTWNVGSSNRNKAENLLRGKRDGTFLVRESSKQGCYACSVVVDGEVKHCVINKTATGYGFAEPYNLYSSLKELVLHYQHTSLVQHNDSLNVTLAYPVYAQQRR
PROTOCOL_SUMMARY: Fluorescent (HTRF) determination of PI3K enzyme activity, δ isoform
Assay type: biochemical
READOUT_LABEL: inhibition at 1 µM

- MOLECULE: "CC(c1oc2ccc(Br)cc2c(=O)c1-c1ccccc1)n1cnc2c(N)ncnc21 (stereo not shown) [Example 21]"
  READOUT_LABEL: "inhibition at 1 µM"
  RESULT: "< 50%"
- MOLECULE: "COc1cccc(-c2nn(Cc3oc4ccccc4c(=O)c3-c3cccc(F)c3)c3ncnc(N)c23)c1 [Example 54]"
  READOUT_LABEL: "inhibition at 1 µM"
  RESULT: "< 50%"
- MOLECULE: "CC(c1oc2ccc(Br)cc2c(=O)c1-c1ccccc1)n1ncc2c(N)ncnc21 (stereo not shown) [Example 26]"
  READOUT_LABEL: "inhibition at 1 µM"
  RESULT: "< 50%"
- MOLECULE: "Nc1ncnc2c1c(-c1cccc(O)c1)nn2Cc1oc2ccccc2c(=O)c1-c1cccc(F)c1 [Example 55]"
  READOUT_LABEL: "inhibition at 1 µM"
  RESULT: "50 to 100%"
- MOLECULE: "Nc1ncnc2c1c(-c1cc(O)cc(F)c1)nn2Cc1oc2ccccc2c(=O)c1-c1cccc(F)c1 [Example 68]"
  READOUT_LABEL: "inhibition at 1 µM"
  RESULT: "50 to 100%"
- MOLECULE: "COc1cccc(-c2nn(C(C)c3oc4ccccc4c(=O)c3-c3ccccc3)c3ncnc(N)c23)c1 (stereo not shown) [Example 41]"
  READOUT_LABEL: "inhibition at 1 µM"
  RESULT: "50 to 100%"
- MOLECULE: "Cl.O=c1c(-c2ccccc2)c(CN2CCOCC2)oc2ccccc12 [Example 4a, hydrochloride]"
  READOUT_LABEL: "inhibition at 1 µM"
  RESULT: "< 50%"
